Where do these numbers come from? They come from ChEMBL document CHEMBL2346550.

Target protein (sequence): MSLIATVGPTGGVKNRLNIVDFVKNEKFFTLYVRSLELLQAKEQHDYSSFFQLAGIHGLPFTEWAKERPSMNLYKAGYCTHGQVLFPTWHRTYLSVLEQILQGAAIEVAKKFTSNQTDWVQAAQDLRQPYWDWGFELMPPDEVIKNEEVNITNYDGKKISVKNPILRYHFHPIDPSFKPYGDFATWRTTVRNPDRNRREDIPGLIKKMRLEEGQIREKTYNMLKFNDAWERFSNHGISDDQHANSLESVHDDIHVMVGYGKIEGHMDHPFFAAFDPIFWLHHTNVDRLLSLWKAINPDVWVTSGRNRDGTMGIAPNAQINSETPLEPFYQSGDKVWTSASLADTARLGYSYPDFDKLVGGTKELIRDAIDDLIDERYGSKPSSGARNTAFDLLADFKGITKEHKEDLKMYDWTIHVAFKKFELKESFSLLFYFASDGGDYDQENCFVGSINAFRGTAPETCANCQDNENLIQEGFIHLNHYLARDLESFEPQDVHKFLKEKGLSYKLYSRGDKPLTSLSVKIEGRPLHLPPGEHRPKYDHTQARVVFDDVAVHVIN
pIC50 listing for selected compounds.
Please keep in mind that pIC50 is minus log10 of the molar concentration; only the number is needed.

Here are 2 compounds together with their reported answers.
>  <smilesEntry>
CC(=O)Oc1ccc2ccccc2c1/N=N/c1ccc(C2=N/C(=C/c3ccc(F)cc3)C(=O)O2)cc1

>  <observable>
pIC50

>  <readoutValue>
5.41

$$$$
>  <smilesEntry>
CC(=O)Oc1c(/N=N/c2ccc(C3=N/C(=C/c4ccc(OC(F)(F)F)cc4)C(=O)O3)cc2)ccc2ccccc12

>  <observable>
pIC50

>  <readoutValue>
5.40

$$$$

### Prompt Given the compound "CN(C)c1ccc(/N=N/c2ccc(C3=N/C(=C/c4ccc(F)cc4)C(=O)O3)cc2)cc1" , what is its reported pIC50?
### Response 5.70

### Prompt Given the compound "CC(=O)Oc1c(/N=N/c2ccc(C3=N/C(=C/c4ccc(F)cc4)C(=O)O3)cc2)ccc2ccccc12" , what is its reported pIC50?
### Response 5.36

### Prompt Given the compound "CN(C)c1ccc(/N=N/c2ccc(C3=N/C(=C/c4ccc(OC(F)(F)F)cc4)C(=O)O3)cc2)cc1" , what is its reported pIC50?
### Response 5.84
